Assay: Probe fluorescence ratio response to stearic acid relative to ADIFAB2
Type: binding
Conditions: response relative to ADIFAB2
Decision: DR/DR SA compared against 0.6; not below it gives label 1, below it gives label 0.

[[record]]
molecule = "55V 73F 72A (protein, listed as Rattus norvegicus, PEPTIDE (1)...(131) wild-type rat intestinal fatty acid binding protein) AFDGTWKVDRNENYEKFMEKMGINVVKRKLGAHDNLKLTITQEGNKFTVKESSNVRNIDVVFELGVDFAYSAFDGTELTGTWTMEGNKLVGKFKRVDNGKELIAVREISGNELIQTYTYEGVEAKRIFKKE"
assignedcategory = "label 0"

[[record]]
molecule = "72T 73V 74A (protein, listed as Rattus norvegicus, PEPTIDE (1)...(131) wild-type rat intestinal fatty acid binding protein) AFDGTWKVDRNENYEKFMEKMGINVVKRKLGAHDNLKLTITQEGNKFTVKESSNFRNIDVVFELGVDFAYSTVAGTELTGTWTMEGNKLVGKFKRVDNGKELIAVREISGNELIQTYTYEGVEAKRIFKKE"
assignedcategory = "label 1"

[[record]]
molecule = "74E 72A 73F (protein, listed as Rattus norvegicus, PEPTIDE (1)...(131) wild-type rat intestinal fatty acid binding protein) AFDGTWKVDRNENYEKFMEKMGINVVKRKLGAHDNLKLTITQEGNKFTVKESSNFRNIDVVFELGVDFAYSAFEGTELTGTWTMEGNKLVGKFKRVDNGKELIAVREISGNELIQTYTYEGVEAKRIFKKE"
assignedcategory = "label 0"

[[record]]
molecule = "72S 73W 74S (protein, listed as Rattus norvegicus, PEPTIDE (1)...(131) wild-type rat intestinal fatty acid binding protein) AFDGTWKVDRNENYEKFMEKMGINVVKRKLGAHDNLKLTITQEGNKFTVKESSNFRNIDVVFELGVDFAYSSWSGTELTGTWTMEGNKLVGKFKRVDNGKELIAVREISGNELIQTYTYEGVEAKRIFKKE"
assignedcategory = "label 1"

[[record]]
molecule = "21W 72A (protein, listed as Rattus norvegicus, PEPTIDE (1)...(131) wild-type rat intestinal fatty acid binding protein) AFDGTWKVDRNENYEKFMEKWGINVVKRKLGAHDNLKLTITQEGNKFTVKESSNFRNIDVVFELGVDFAYSAADGTELTGTWTMEGNKLVGKFKRVDNGKELIAVREISGNELIQTYTYEGVEAKRIFKKE"
assignedcategory = "label 1"

[[record]]
molecule = "18V 31F 73M 72A (protein, listed as Rattus norvegicus, PEPTIDE (1)...(131) wild-type rat intestinal fatty acid binding protein) AFDGTWKVDRNENYEKFVEKMGINVVKRKLFAHDNLKLTITQEGNKFTVKESSNFRNIDVVFELGVDFAYSAMDGTELTGTWTMEGNKLVGKFKRVDNGKELIAVREISGNELIQTYTYEGVEAKRIFKKE"
assignedcategory = "label 0"

[[record]]
molecule = "18I 31Y 72A (protein, listed as Rattus norvegicus, PEPTIDE (1)...(131) wild-type rat intestinal fatty acid binding protein) AFDGTWKVDRNENYEKFIEKMGINVVKRKLYAHDNLKLTITQEGNKFTVKESSNFRNIDVVFELGVDFAYSAADGTELTGTWTMEGNKLVGKFKRVDNGKELIAVREISGNELIQTYTYEGVEAKRIFKKE"
assignedcategory = "label 1"

[[record]]
molecule = "73T 72A 74F (protein, listed as Rattus norvegicus, PEPTIDE (1)...(131) wild-type rat intestinal fatty acid binding protein) AFDGTWKVDRNENYEKFMEKMGINVVKRKLGAHDNLKLTITQEGNKFTVKESSNFRNIDVVFELGVDFAYSATFGTELTGTWTMEGNKLVGKFKRVDNGKELIAVREISGNELIQTYTYEGVEAKRIFKKE"
assignedcategory = "label 0"

[[record]]
molecule = "72G 73F 74N (protein, listed as Rattus norvegicus, PEPTIDE (1)...(131) wild-type rat intestinal fatty acid binding protein) AFDGTWKVDRNENYEKFMEKMGINVVKRKLGAHDNLKLTITQEGNKFTVKESSNFRNIDVVFELGVDFAYSGFNGTELTGTWTMEGNKLVGKFKRVDNGKELIAVREISGNELIQTYTYEGVEAKRIFKKE"
assignedcategory = "label 0"

[[record]]
molecule = "74Q 72A 73F (protein, listed as Rattus norvegicus, PEPTIDE (1)...(131) wild-type rat intestinal fatty acid binding protein) AFDGTWKVDRNENYEKFMEKMGINVVKRKLGAHDNLKLTITQEGNKFTVKESSNFRNIDVVFELGVDFAYSAFQGTELTGTWTMEGNKLVGKFKRVDNGKELIAVREISGNELIQTYTYEGVEAKRIFKKE"
assignedcategory = "label 0"

